Values were extracted from patent US10130615B2.

TEST_SYSTEM: μ-opioid receptor (Homo sapiens, UniProt P35372)
Sequence (P35372 whole entry, species assumed): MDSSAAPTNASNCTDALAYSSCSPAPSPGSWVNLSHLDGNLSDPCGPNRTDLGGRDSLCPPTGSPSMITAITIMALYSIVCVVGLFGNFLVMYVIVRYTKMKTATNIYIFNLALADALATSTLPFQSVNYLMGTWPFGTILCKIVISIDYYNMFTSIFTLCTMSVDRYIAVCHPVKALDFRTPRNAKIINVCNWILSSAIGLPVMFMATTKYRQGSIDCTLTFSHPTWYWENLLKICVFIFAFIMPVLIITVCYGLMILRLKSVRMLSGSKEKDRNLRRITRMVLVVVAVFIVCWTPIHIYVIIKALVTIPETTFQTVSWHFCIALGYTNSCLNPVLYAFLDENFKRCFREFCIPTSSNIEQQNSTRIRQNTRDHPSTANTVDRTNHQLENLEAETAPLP
MEASUREMENT_PROTOCOL: μ-opioid receptor GTPγS functional assay, U2OS cells
PARTICULARS: read-out: GTPγS μ Emax
EXPERIMENTAL_READOUT: Emax (%)
Give bare numbers, in %.

Use the examples below as a reference point.
# COMPOUND, UNIT_SYMBOL, Emax
rows = [
    ("COc1ccc2c(c1)[C@]1(CCOCc3ccccc3)CCN(C)[C@H](C2)[C@@H]1C [Compound 48]", "%", 97),
    ("COC(=O)c1ccc(CC(=O)NCC[C@]23CCN(CC4CC4)[C@H](Cc4ccc(OC)cc42)[C@@H]3C)cc1 [Compound 30]", "%", 51),
]

For each of the items listed, what is its Emax?
1. C[C@H]1[C@H]2Cc3ccc(O)cc3C1(CCNS(=O)(=O)N(C)C)CCN2CC1CC1 [Compound 9]
2. C[C@H]1[C@H]2Cc3ccc(O)cc3[C@]1(CC(=O)N1CCC(N(C3CC3)S(=O)(=O)c3ccc(Cl)cc3)CC1)CCN2C [Compound 61]
3. COC[C@@H]1CCCN1CC[C@]12CCN(C)[C@H](Cc3ccc(OC)cc31)[C@@H]2C [Compound 56]
4. C[C@H]1[C@H]2Cc3ccc(O)cc3[C@]1(CCCC(N)=O)CCN2CC1CCC1 [Compound 29]
5. COC(=O)[C@H](CCCCN)NCCCC[C@]12CCN(CC3CC3)[C@H](Cc3ccc(O)cc31)[C@@H]2C [Compound 26]

1: 27; 2: 78.7; 3: 72.3; 4: 41.3; 5: 40
